- System: MS2 coat protein
- assay procedure: apparent KD of MS2 coat protein; designed switch direction (-1 OFF switch, 1 ON switch): -1; higher = weaker reporter binding
- condition label: Eterna round: R95; input ligand: FMN 200 uM
Assign class by apparent KD of MS2 coat protein: not lower than 100 nM means Y; lower than 100 nM means N.

Field: example entries. Status: answers known.
residue sequence	study target	class
GAUUAUGCGAGCUUUAGGGACAUGAGGAUCACCCAUGUUCGUCUUAUUAGUCUAGGUGCACUAACAUACCUAAAUCU [JMF 35] (puzzle: Sensor v3, turn-off variant 1)	MS2 coat protein	N
ACAAGCUUUUUGUUCGUCUUAUAAUAUUCAAUAAGGAUAACAUGAGGAUCACCCAUGUAACAAAGACGGACUCAUGU [Sesor Array 15 - Jieux - Sensor v3, turn-off variant 2] (puzzle: Sensor v3, turn-off variant 2)	MS2 coat protein	N
UCUAGCUUUUUGCGUCAAGCAUUGAAGUCUGUGAUCGUUACAUGAGGAUCACCCAUGUAUGUUUUAUGUCGUCUUGU [JR_SV3TOV2_Sub099] (puzzle: Sensor v3, turn-off variant 2)	MS2 coat protein	N
AUUAUAAUAUAGGAUAUCGAAAUAAUUAUUUAACGAGAAGGAUGAACAUGAGGAUCACCCAUGUGGUAUCAUGG [Mat - Exclusion 6 - JL Mod - D33] (puzzle: Exclusion 6)	MS2 coat protein	Y
GAAAAGUGAGGAUAUGGUAAAAGAAAAAGAAGAAGAAAACUCCAGAAGGCACAUGAGGAUCACCCAUGUGAAAG [salish99_ex4_r3_007] (puzzle: Exclusion 4)	MS2 coat protein	N
UGGUGGAAGCAGGAUAUGCUUGUAUUAUUGAUAGCAGAAGGGCUAACAUGAGGAUCACCCAUGUAAGAGGUGUA [JR_E6_Sub057] (puzzle: Exclusion 6)	MS2 coat protein	Y
UUUUAACAUGAGGAUCACCCAUGUGAGGAUAUCGUUUUUUUUUUUUUUUUUUUUUUUUCGAGAAGGCACAUUUU [My solution] (puzzle: Exclusion 1)	MS2 coat protein	Y
AAUGAGCUAGGAUAUACAUGAGGAUCACCCAUGUAAAAUAGGUCAUGGAUGAACCACUGUAGAAGGAGCAGGGC [Ateseszave] (puzzle: Exclusion 3)	MS2 coat protein	N
AGUAACUAUCACGAAAGUGAUAGUUACACAAGCAGUGACACAUGAGGAUCACCCAUGUCCUCAUUUGCUCGUCUUAU [Sensor 3 - 29] (puzzle: Sensor v3, turn-off variant 2)	MS2 coat protein	Y
AAAAAACAAGGAUAUACGAAGGAGGAUUAUCUUAAUUUUUGACAUGAGGAUCACCCAUGUAGAAGGUGUUAAAA [JR_Exclusion2_Sub009] (puzzle: Exclusion 2)	MS2 coat protein	N

Query string: Does the sequence GGUUGACAUGAGGAUCACCCAUGUGAGGAUAUGCGAGAGAAAAAAGUGAGGAAGAAAAGCAGAAGGCGCUGUCG [salish99-ex1_r3_003] (puzzle: Exclusion 1) have recorded apparent KD of MS2 coat protein that is 100 nM or more?
Result string: N

Query string: Continue with AAUAAGUGAGGAUAUCCAAUAAUAAAUAAAAUAAUAAAUAAGGAGAAGGCACAUGAGGAUCACCCAUGUAAUAA [JMF's solution 2] (puzzle: Exclusion 4)
Result string: N

Query string: Continue with UCAUGGUAGCAGGAUAUGCUAGAAAUUUUUUAUGCAGAAGGGCUUACAUGAGGAUCACCCAUGUGUUAGGUCUA [JR_E6_Sub070] (puzzle: Exclusion 6)
Result string: N
